Tested on: HepG2 cell line
Protocol: In vitro toxicity study on HepG2 cell line (resazurin, viability and IC50)
Assay type: cell-based, human
Settings: HepG2 cells, 200 μM lipid, 48 h post-treatment, resazurin, relative to ethanol vehicle controls
Experimental: The synthesized lipids were tested in term of in vitro transfection efficacy and toxicity on HeLa cells. In order to perform the mentioned biological tests, appropriate LNPs had to be formulated from the synthesized lipids. The formulation technique was different in Method A and B. The particle size, polydispersity index (PDI) and zeta potential of resulting LNPs were determined by means of Dynamic Light Scattering technique (DLS). […]
Quantity: Viability (%) at different lipid concentrations, mean
Form entry: value (%) — number only.

For CCCCCCCCCCCOC(=O)CCCCCN(CCO)CCCCCCCC(=O)OC(CCCCCCCC)CCCCCCCC [SM-102, reference compound] , what is its reported Viability (%) at different lipid concentrations, mean?
0.4

Others:
For CCCCC/C=C\C/C=C\CCCCCCCCOC(CCCCCCCCCCCCCCC)O[Si](C)(C)OCCCCCCN(CCO)CCO (stereo not shown) [Example 43] , what is its reported Viability (%) at different lipid concentrations, mean?
108.9

For CCCCC/C=C\C/C=C\CCCCCCCCOC(CCCCCCC/C=C\C/C=C\CCCCC)O[Si](C)(C)OCCCCCCN(C)C (stereo not shown) [Example 79] , what is its reported Viability (%) at different lipid concentrations, mean?
76.57

For CCCCC/C=C\C/C=C\CCCCCCCCOC(CCCCCCC/C=C\C/C=C\CCCCC)O[Si](C)(C)OCCCCCCN(C)[C@H](CO)Cc1ccccc1 (stereo partly shown) [Example 77] , what is its reported Viability (%) at different lipid concentrations, mean?
100.5

---

Here, each record is paired with measured Viability (%) at different lipid concentrations, mean data.
Test system: HepG2 cell line
Protocol: In vitro toxicity study on HepG2 cell line (resazurin, viability and IC50)
Format: cell-based, human
Settings: HepG2 cells, 6.25 μM lipid, 48 h post-treatment, resazurin, relative to ethanol vehicle controls
Form entry: value (%) — number only.

For CCCCC/C=C\C/C=C\CCCCCCCCOC(CCCCCCCCCCCCCCC)O[Si](C)(C)OCCCCCCN(CCO)CCO (stereo not shown) [Example 43] , what is its reported Viability (%) at different lipid concentrations, mean?
100.9

For CCCCCCCC/C=C\CCCCCCCCOC(=O)C(C)(C)CC(OCCCCCCCC/C=C\CCCCCCCC)O[Si](C)(C)OCCCCCCN(CCCCO)CCCCO (stereo not shown) [Example 86] , what is its reported Viability (%) at different lipid concentrations, mean?
95.4

For CCCCCCCC/C=C\CCCCCCCCOC(=O)C(C)(C)CC(OCCCCCCCC/C=C\CCCCCCCC)O[Si](C)(C)OCCCCCCN(C)CCCCO (stereo not shown) [Example 91] , what is its reported Viability (%) at different lipid concentrations, mean?
100.2

For CCCCC/C=C\C/C=C\CCCCCCCC(OCCCCCCCCCCCCCCCC)O[Si](C)(C)OCCCCCCN(CCO)CCO (stereo not shown) [Example 44] , what is its reported Viability (%) at different lipid concentrations, mean?
100.8

For CCCCCCCC/C=C\CCCCCCCCOC(=O)C(C)(C)CC(OCCCCCCCC/C=C\CCCCCCCC)O[Si](C)(C)OCCCCCCN(C)CCO (stereo not shown) [Example 93] , what is its reported Viability (%) at different lipid concentrations, mean?
102.3

For CCCCCCCC/C=C\CCCCCCCC(OCC(CCCCCCCC)SCCCCC)O[Si](C)(C)OCCCCCCN(CCO)CCO (stereo not shown) [Example 72] , what is its reported Viability (%) at different lipid concentrations, mean?
104.3

For CCCCCCCCCCCCCCCCOC(CCCCCCCCCCCCCCC)O[Si](C)(C)OCCCCCCN(CCO)CCO (stereo not shown) [Example 49] , what is its reported Viability (%) at different lipid concentrations, mean?
101.6

For CCCCC/C=C\C/C=C\CCCCCCCCOC(CCCCCCC/C=C\C/C=C\CCCCC)O[Si](C)(C)OCCCCCCN(C)Cc1cn(C2[C@H](O)O[C@H](CO)[C@@H](O)[C@@H]2O)nn1 (stereo partly shown) [Example 68] , what is its reported Viability (%) at different lipid concentrations, mean?
99.4

For CCCCC/C=C\C/C=C\CCCCCCCCOC(CCCCCCC/C=C\C/C=C\CCCCC)O[Si](C)(C)OCCCCCCN1CCCCC1 (stereo not shown) [Example 57] , what is its reported Viability (%) at different lipid concentrations, mean?
97.2

For CCCCC/C=C\C/C=C\CCCCCCCC(OCCCCCCCC/C=C\CCCCCCCC)O[Si](C)(C)OCCCCCCN(CCO)CCO (stereo not shown) [Example 45] , what is its reported Viability (%) at different lipid concentrations, mean?
105.6

Others:
For CCCCC/C=C\C/C=C\CCCCCCCCOC(CCCCCCC/C=C\C/C=C\CCCCC)O[Si](C)(C)OCCCCCCN(C)CCO (stereo not shown) [Example 56] , what is its reported Viability (%) at different lipid concentrations, mean?
96.7

For CCCCC/C=C\C/C=C\CCCCCCCCOC(CCCCCCC/C=C\C/C=C\CCCCC)O[Si](C)(C)OCCCCCCN1CCCC1CO (stereo not shown) [Example 63] , what is its reported Viability (%) at different lipid concentrations, mean?
99.3

For CCCCCCCC/C=C\CCCCCCCCOC(CCCCCCCCCCCCCCC)O[Si](C)(C)OCCCCCCN(CCO)CCO (stereo not shown) [Example 41] , what is its reported Viability (%) at different lipid concentrations, mean?
99.0

Entry source: patent US20260109721A1
